- System: TK-10
- procedure_text: NCI tumour cell line growth inhibition, 48 h
The source made the active and inactive calls. Rule as the data show it: active = GI50 up to about 1.1 µM and inactive = higher.
Outcome codes: active, inactive

| compound | class |
| --- | --- |
| Oc1ccc(C[C@@H]2CN[C@H](Cc3ccc(O)c(Br)c3)CN2)cc1 | inactive |
| COc1cc(C(CC(OC)OC)=C(C#N)C#N)cc(OC)c1OC | inactive |
| CCc1nn(S(=O)(=O)c2ccc(C)cc2)c2c1CS(=O)(=O)CC2 | inactive |
| Clc1ccc(Nc2nc3ccccc3nc2-c2cccs2)cc1Cl | inactive |
| CCOC(=O)C1=C(C)N(c2ccc(Cl)cc2)C2(O)C=CC(O)=C3C(=O)c4ccccc4C(=O)C312 (centres undefined) | inactive |
| CCOc1ccc2c(c1)[n+]([O-])c(-c1ccc(Br)cc1)c(N)[n+]2[O-] | inactive |
| C/C1=C\[C@H](C)C[C@H](C)OC(=O)C[C@H](c2ccc(O)cc2)NC(=O)[C@@H](Cc2c(Br)[nH]c3ccccc23)N(C)C(=O)[C@H](C)NC(=O)[C@@H](C)C1 [JASPAMIDE] | active |
| C[C@@H]1CC2(C[C@@H](C)C3[C@@H](CC4(C)CCCC5C6=CC(O)(CC[C@]34C)OC6=CC(=O)OC5(C)C)O2)OC1=O (some centres undefined) | inactive |
| CCCCCCCCCCCCCCCCOP(=O)(O)OCC(NC(C)=O)C(=O)O (centres undefined) | inactive |
